- Test system: ACHN (kidney cancer)
attribute-measured: GI50 (µg/mL)

Examples from the recorded data:
C=CC[N+]1(C)CCCN(C(=O)CCCCCCCCCCC)CC1 (stereo not shown) [Example 118]    2.18
CCCCCCCCCCCS(=O)(=O)N1CC[N+](C)(Cc2ccc(F)cc2)CC1 [Example 66]    1.24
C=CC[N+]1(CC)CCN(S(=O)(=O)CCCCCCCCCCCCCCCCCC)CC1 [Example 72]    0.71
CCCCCCCCCCCCCCS(=O)(=O)N1CC[N+](CC)(CC)CC1 [Example 94]    0.31
CCCCCCCCCCCCCCS(=O)(=O)N1CC[N+](CC)(Cc2ccccc2)CC1 [Example 113]    1.05
CCCCCCCCCCCCCCCC(=O)N1CCC[N+](C)(C)CC1 [Example 122]    0.4

1: C=CC[N+]1(CC)CCN(S(=O)(=O)CCCCCCCCCCCC)CC1 [Example 85]
2: CCCCCCCCCCCCCC(=O)N1CC[N+](CC)(Cc2cccc(F)c2)CC1 [Example 51]
3: C=CC[N+]1(CC)CCN(S(=O)(=O)CCCCCCCCCC)CC1 [Example 80]
4: CCCCCCCCCCCCCCCC(=O)N1CCC[N+](C)(Cc2ccccc2)CC1 (stereo not shown) [Example 125]
Query string: Could you please sort these 4 entries by GI50 from high to low? Form field (ranking): labels in requested order.
Result string: 3, 2, 4, 1

a: CCCCCCCCCCCS(=O)(=O)N1CC[N+](CC)(Cc2ccccc2)CC1 [Example 64]
b: CCCCCCCCCCCCCCCCCCCCCC(=O)N1CC[N+](C)(Cc2ccccc2)CC1 [Example 35]
Query string: Higher GI50 between a and b ? Output the label that corresponds to your choice.
Result string: b

a: CCCCCCCCCCCCCCCCCCCC(=O)N1CC[N+](C)(C)CC1 [Example 31]
b: CCCCCCCCCCCCCC(=O)N1CCC[N+](C)(C)CC1 [Example 123]
Query string: API: POST /compare with a and b ; response names the item with higher GI50. Returns: label corresponding to the selected item.
Result string: a
(a: 1.39 µg/mL, b: 0.49 µg/mL)

a: CCCCCCCCCCCCCCCCCC(=O)N1CC[N+](CC)(Cc2ccc(F)cc2)CC1 [Example 48]
b: CCCCCCCCCCS(=O)(=O)N1CC[N+](C)(Cc2ccccc2)CC1 [Example 76]
Query string: Which has the higher GI50, a or b ? Refer to your chosen item by its label in the answer.
Result string: b
(b: 3.5 µg/mL, a: 1.43 µg/mL)

###

- Tested on: ACHN (kidney cancer)
attribute-measured: GI50

Worked examples follow.
CCCCCCCCCC(=O)N1CC[N+](CC)(Cc2ccccc2)CC1 [Example 10]    > 10 µg/mL
CCCCCCCCCS(=O)(=O)N1CC[N+](C)(Cc2ccc(F)cc2)CC1 [Example 104]    > 10 µg/mL
CCCCCCCCCCS(=O)(=O)N1CC[N+](CC)(Cc2ccc(F)cc2)CC1 [Example 87]    > 10 µg/mL
CCCCCCCCCCCCCCCCCCCCCC(=O)N1CC[N+](CC)(Cc2ccccc2)CC1 [Example 37]    > 10 µg/mL
C=CC[N+]1(C)CCN(C(=O)CCCCCCCCCCCCCCCCCCC)CC1 [Example 33]    > 10 µg/mL

Now for another entry.
Field GI50 (ACHN (kidney cancer)), entry C=CC[N+]1(C)CCN(C(=O)CCCCCCCCCCCCCCCCCCCCCCC)CC1 [Example 41] : > 10 µg/mL
